meta.source: ChEMBL document CHEMBL4811305

# ASSAY_EXPLANATION: Metabolic stability in human liver microsomes assessed as compound remaining measured after 60 mins
# Type: ADME, Microsome
# TEST_CONDITIONS: read-out: Stabilty
READOUT_LABEL: remaining at 1 h (%)

> print(dat)
                            compound.smiles  number
1  N#Cc1ccc(-c2ccc(C[C@@H](C#N)NC(=O)[C@@H]3C[C@@H]4CCC[C@@H]4N3)cc2)cc1       1

====

# TARGET_OF_ASSAY: CYP2C9 (Homo sapiens, UniProt P11712)
# Sequence (P11712 whole entry): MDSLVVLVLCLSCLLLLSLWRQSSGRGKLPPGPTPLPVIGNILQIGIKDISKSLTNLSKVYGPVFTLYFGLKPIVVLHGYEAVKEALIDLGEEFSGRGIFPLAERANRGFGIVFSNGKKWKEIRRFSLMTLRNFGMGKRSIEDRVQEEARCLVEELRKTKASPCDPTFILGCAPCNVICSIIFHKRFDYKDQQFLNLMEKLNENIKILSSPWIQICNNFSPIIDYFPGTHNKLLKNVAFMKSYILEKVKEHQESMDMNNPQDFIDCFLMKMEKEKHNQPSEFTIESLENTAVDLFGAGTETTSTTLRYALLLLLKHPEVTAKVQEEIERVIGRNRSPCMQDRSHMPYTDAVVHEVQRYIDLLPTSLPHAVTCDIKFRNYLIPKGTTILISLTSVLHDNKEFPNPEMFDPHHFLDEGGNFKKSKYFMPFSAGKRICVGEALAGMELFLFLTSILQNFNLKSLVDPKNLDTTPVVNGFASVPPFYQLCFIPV
# ASSAY_EXPLANATION: Inhibition of CYP2C9 (unknown origin) at 1 uM relative to control
# Type: ADME
READOUT_LABEL: inhibition at 1 µM

> print(dat)
                            compound.smiles       readout.label  result
1  N#Cc1ccc(-c2ccc(C[C@@H](C#N)NC(=O)[C@@H]3C[C@@H]4CCC[C@@H]4N3)cc2)cc1  inhibition at 1 µM     12%

====

# TARGET_OF_ASSAY: CYP2C19 (Homo sapiens)
# Sequence (P33261 whole entry): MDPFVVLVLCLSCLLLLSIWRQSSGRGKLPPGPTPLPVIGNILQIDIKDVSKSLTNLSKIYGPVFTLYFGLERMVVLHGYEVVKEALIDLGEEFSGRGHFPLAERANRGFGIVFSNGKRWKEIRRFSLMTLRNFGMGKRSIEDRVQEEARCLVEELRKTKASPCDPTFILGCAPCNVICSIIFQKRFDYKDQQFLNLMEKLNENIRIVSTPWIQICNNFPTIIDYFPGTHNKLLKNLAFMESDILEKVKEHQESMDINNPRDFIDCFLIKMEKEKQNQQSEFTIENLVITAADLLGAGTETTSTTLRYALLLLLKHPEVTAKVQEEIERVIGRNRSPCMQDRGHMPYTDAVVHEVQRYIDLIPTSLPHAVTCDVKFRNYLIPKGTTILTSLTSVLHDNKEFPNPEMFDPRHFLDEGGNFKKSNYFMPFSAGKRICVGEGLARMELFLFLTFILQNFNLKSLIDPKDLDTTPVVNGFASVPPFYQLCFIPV
# ASSAY_EXPLANATION: Inhibition of CYP2C19 (unknown origin) at 10 uM relative to control
# Type: ADME
READOUT_LABEL: inhibition at 10 µM (%)

> print(dat)
                            compound.smiles         target.of.assay        readout.label  uom  number
1  N#Cc1ccc(-c2ccc(C[C@@H](C#N)NC(=O)[C@@H]3C[C@@H]4CCC[C@@H]4N3)cc2)cc1  CYP2C19 (Homo sapiens)  inhibition at 10 µM    %    38.4

====

# TARGET_OF_ASSAY: Dipeptidyl peptidase 1 (Homo sapiens)
# Sequence (P53634 25-134 limits assumed): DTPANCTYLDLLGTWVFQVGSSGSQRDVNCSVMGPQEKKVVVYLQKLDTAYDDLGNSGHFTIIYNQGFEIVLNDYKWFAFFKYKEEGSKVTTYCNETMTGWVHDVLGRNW
# Sequence (P53634 231-394 limits assumed): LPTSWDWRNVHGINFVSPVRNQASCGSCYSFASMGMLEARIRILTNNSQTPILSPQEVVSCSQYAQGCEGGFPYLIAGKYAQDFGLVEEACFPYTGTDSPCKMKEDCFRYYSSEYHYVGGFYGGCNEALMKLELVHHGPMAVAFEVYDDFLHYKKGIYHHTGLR
# Sequence (P53634 395-463 limits assumed): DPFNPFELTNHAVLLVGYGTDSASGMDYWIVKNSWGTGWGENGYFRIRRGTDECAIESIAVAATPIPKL
# ASSAY_EXPLANATION: Inhibition of human cathepsin C at 10 uM relative to control
Listed compounds paired with reported inhibition
READOUT_LABEL: inhibition (%)

> print(dat)
                                    compound  uom  number
 1  N#Cc1ccc(-c2ccc(C[C@@H](C#N)NC(=O)[C@@H]3C[C@H]4CCC[C@@H]4N3)cc2)cc1    %    50.1
 2  N#Cc1ccc(-c2ccc(C[C@@H](C#N)NC(=O)[C@@H]3CN4CCC[C@@H]4CN3)cc2)cc1    %    22.8
 3  N#Cc1ccc(-c2ccc(C[C@@H](C#N)NC(=O)[C@H]3CN4CCC[C@H]4CN3)cc2)cc1    %      95
 4  N#Cc1ccc(-c2ccc(C[C@@H](C#N)NC(=O)[C@@H](N)C34CC5CC(CC(O)(C5)C3)C4)cc2)cc1    %    2.19
 5  N#Cc1ccc(-c2ccc(C[C@@H](C#N)NC(=O)[C@@H]3C[C@@H]4CCC[C@@H]4N3)cc2)cc1    %     100
 6  N#Cc1ccc(-c2ccc(C[C@@H](C#N)NC(=O)[C@@H]3CC4CCCC[C@@H]4N3)cc2)cc1 (single isomer, unassigned)    %      99
 7  N#Cc1ccc(-c2ccc(C[C@@H](C#N)NC(=O)[C@@H]3CCCN3)cc2)cc1    %    99.1
 8  N#Cc1ccc(-c2ccc(C[C@@H](C#N)NC(=O)[C@H]3CN4CCC[C@@H]4CN3)cc2)cc1    %    1.11
 9  N#Cc1ccc(-c2ccc(C[C@@H](C#N)NC(=O)[C@@H]3CC4(CCC4)CN3)cc2)cc1    %    98.2
10  N#Cc1ccc(-c2ccc(C[C@@H](C#N)NC(=O)[C@@H]3C[C@@H]4C[C@@H]4N3)cc2)cc1    %    97.9
11  N#Cc1ccc(-c2ccc(C[C@@H](C#N)NC(=O)[C@@H]3CN4CCC[C@H]4CN3)cc2)cc1    %       0
12  N#Cc1ccc(-c2ccc(C[C@@H](C#N)NC(=O)[C@H]3COCCN3)cc2)cc1    %    14.2
13  N#Cc1ccc(-c2ccc(C[C@@H](C#N)NC(=O)[C@@H]3CC4(CCCCC4)CN3)cc2)cc1    %    99.3
14  N#Cc1ccc(-c2ccc(C[C@@H](C#N)NC(=O)[C@@H]3CC4(CC4)CN3)cc2)cc1    %    99.5
15  N#Cc1ccc(-c2ccc(C[C@@H](C#N)NC(=O)C3(N)CCOCC3)cc2)cc1    %    99.9
16  N#Cc1ccc(-c2ccc(C[C@@H](C#N)NC(=O)[C@@H]3CC4(CCCC4)CN3)cc2)cc1    %    99.7
17  N#Cc1ccc(-c2ccc(C[C@@H](C#N)NC(=O)[C@@H]3C[C@H]4CCC[C@H]4N3)cc2)cc1    %    98.2
18  N#Cc1ccc(-c2ccc(C[C@@H](C#N)NC(=O)[C@@H]3COCCN3)cc2)cc1    %    96.3
